Measured values drawn from PubChem BioAssay (NCI) for this set.

Test system: OVCAR-8 ovarian
Each record here notes measured GI50.
measurement label: GI50

{"compound": "CCc1ccc(C2=C(O)C(=O)C(c3ccc(CC)cc3)=C(O)C2=O)cc1", "obs value": "2.95 µM"}
{"compound": "CC/C=C\\C[C@H](O)C/C=C1/C(=O)C=C[C@@H]1C/C=C\\CCCC(N)=O", "obs value": "3.03 µM"}
{"compound": "Cc1ccc(-c2cc3nc(-c4ccccc4)nc(C(Cl)Cl)n3n2)cc1", "obs value": "1.16 µM"}
{"compound": "NS(=O)(=O)c1ccc(/C=C/c2cccc(O)c2)cc1", "obs value": "25.2 µM"}
{"compound": "O=[N+]([O-])/C=C\\c1ccc2c(c1)OCO2", "obs value": "2.86 µM"}
{"compound": "CCOC(=O)/C=C/c1ccc(C(=O)OCC)[nH]1", "obs value": "5.82 µM"}
{"compound": "OCC1OC(N2C=C(c3nc4ccccc4s3)C3C=CC=CC32)C(O)C1O (centres undefined)", "obs value": "11.4 µM"}
{"compound": "CC1(C)C(=O)/C(=C\\c2ccco2)C[C@]2(C)[C@H]3CC=C4[C@@H]5C[C@](C)(C(=O)O)CC[C@]5(C)CC[C@@]4(C)[C@]3(C)CC[C@@H]12", "obs value": "6 µM"}
{"compound": "NC(N)=N/N=C/c1c(-c2cc(Cl)sc2Cl)nc2n1CCS2", "obs value": "10.3 µM"}
